The reader will find reported Plant response rating, Redroot pigweed values listed item by item below.
Test system: pigweed
Assay: Test B pre/postemergence pigweed
Assay type: in vivo, Amaranthus retroflexus
Settings: Preemergence, Rate 250 g/ha; scale of 0 to 10 where 0 is no effect and 10 is complete control
// print number alone

Examples from the recorded data:
Cc1nn(C)c(Cl)c1-n1c(=O)on(C(=O)N(c2ccc(F)cc2F)C(C)C)c1=O ... 7
Cc1ccccc1Cn1c(=O)on(C(=O)N(c2ccc(F)cc2F)C(C)C)c1=O ... 8
Cc1c(Cl)cccc1-n1c(=O)on(C(=O)N(c2ccc(F)cc2)C(C)C)c1=O ... 6

[ask] Using the record for `Cc1cc(C)c(-n2c(=O)on(C(=O)N(c3ccc(F)cc3)C(C)C)c2=O)c(C)c1` , state its measured Plant response rating, Redroot pigweed.
[reply] 0

[ask] Provide one value: measured Plant response rating, Redroot pigweed of `Cc1ccccc1-n1c(=O)on(C(=O)N(c2ccc(C(F)(F)F)cc2)C(C)C)c1=O`
[reply] 6

[ask] Tell me measured Plant response rating, Redroot pigweed for `C=CCn1c(=O)on(C(=O)N(c2ccc(Cl)cc2)C(C)C)c1=O` please.
[reply] 9

[ask] State its Plant response rating, Redroot pigweed: `Cc1nn(C)c(Cl)c1-n1c(=O)on(C(=O)N(c2ccccc2)C(C)C)c1=O`
[reply] 8

* * *

Each item that follows carries a reported Morningglory plant response rating (0 to 10 scale).
Test system: morningglory
Assay: Test B pre/postemergence morningglory
Type: in vivo, Ipomoea hederacea
Conditions: Preemergence, Rate 125 g/ha; 0 is no effect, 10 is complete control

Observe how each entry below is paired with its result.
CC(C)N(C(=O)n1oc(=O)n(Cc2ccccc2Cl)c1=O)c1ccc(F)cc1 ... 0
CC(C)N(C(=O)n1oc(=O)n(Cc2ccco2)c1=O)c1ccc(F)cc1F ... 0

// below: Morningglory plant response rating (0 to 10 scale) requested for another compound
[ask] Assign Morningglory plant response rating (0 to 10 scale) to the following record: `CC(C)N(C(=O)n1oc(=O)n([C@H](C)c2ccccc2)c1=O)c1ccc(F)cc1`
[reply] 0

* * *

System: surinam grass
Test: Test B pre/postemergence surinam grass
Type: in vivo, Brachiaria decumbens
Details: Postemergence, Rate 250 g/ha; scale 0 to 10, 0 no effect, 10 complete control
Property label: B. signalgrass plant response rating
# output: bare number, no unit

CCn1c(=O)on(C(=O)N(c2ccccc2)C(C)C)c1=O ... 9
Cc1nn(C)c(Cl)c1-n1c(=O)on(C(=O)N(c2ccc(F)cc2F)C(C)C)c1=O ... 0
CC(C)N(C(=O)n1oc(=O)n(CCCl)c1=O)c1ccccc1 ... 2
C=CCn1c(=O)on(C(=O)N(c2ccc(Cl)cc2)C(C)C)c1=O ... 3
Cc1c(Cl)cccc1-n1c(=O)on(C(=O)N(c2ccc(F)cc2)C(C)C)c1=O ... 0

[ask] Tell me measured B. signalgrass plant response rating for `CCN(CC)C(=O)n1oc(=O)n(Cc2cccs2)c1=O` please.
[reply] 0

[ask] Quickly give me recorded B. signalgrass plant response rating for CC(C)N(C(=O)n1oc(=O)n(C(C)C(=O)N(C)C)c1=O)c1ccccc1 (stereo not shown)
[reply] 3

[ask] // Input: `CCN(C(=O)n1oc(=O)n(-c2c(C)cccc2C)c1=O)C1CCCCC1` . Output its B. signalgrass plant response rating only.
[reply] 0

[ask] Respond only with B. signalgrass plant response rating recorded for `CC(C)N(C(=O)n1oc(=O)n(CC(=O)C2CC2)c1=O)c1ccccc1`
[reply] 6

[ask] Read off the recorded B. signalgrass plant response rating for `Cc1ccccc1-n1c(=O)on(C(=O)N(c2ccc(C(F)(F)F)cc2)C(C)C)c1=O`
[reply] 0

* * *

Below, each of the compounds is paired with its reported Plant response rating, I. Ryegrass value.
System: Italian ryegrass
Experiment: Test E Italian ryegrass
Type: in vivo, Lolium multiflorum
Settings: Preemergence, Rate 250 g/ha; 0 to 100 scale
Answer with a number only.

CC(C)N(C(=O)n1oc(=O)n(C2CCCCC2)c1=O)c1ccc(F)cc1F ... 45
CC1CC1n1c(=O)on(C(=O)N(c2ccc(Cl)cc2)C(C)C)c1=O (centres unmarked) ... 50
C=CCn1c(=O)on(C(=O)N(c2ccc(Cl)cc2)C(C)C)c1=O ... 30
CC(C)N(C(=O)n1oc(=O)n(C2CCOCC2)c1=O)c1ccc(F)cc1 ... 70

[ask] Indicate the recorded Plant response rating, I. Ryegrass value for this compound: `CC(C)N(C(=O)n1oc(=O)n(C(C)(C)C)c1=O)c1ccc(Cl)cc1`
[reply] 60

* * *

Tested on: surinam grass
Test: Test B pre/postemergence surinam grass
Format: in vivo, Brachiaria decumbens
Settings: Preemergence, Rate 500 g/ha; scale of 0 to 10 where 0 is no effect and 10 is complete control
Property label: B. signalgrass plant response rating
Note: the reply should be a number with no unit written.

Known results for compounds:
CCC=CCn1c(=O)on(C(=O)N(c2ccccc2)C(C)C)c1=O ... 4
CC(C)N(C(=O)n1oc(=O)n(C[Si](C)(C)C)c1=O)c1ccccc1 ... 7
C=CCCCn1c(=O)on(C(=O)N(c2ccc(Cl)cc2)C(C)C)c1=O ... 2

Please turn your attention to the following entry.
[ask] Report value only: B. signalgrass plant response rating, surinam grass, `CC(C)N(C(=O)n1oc(=O)n(C2CCOCC2)c1=O)c1ccc(F)cc1`
[reply] 8

* * *

Recorded Wheat plant response rating values for a group of molecules are listed next.
Tested on: wheat
Test: Test B pre/postemergence wheat
Format: in vivo, Triticum aestivum
Conditions: Preemergence, Rate 62 g/ha; scale 0 to 10 (0 no effect, 10 complete control)
Number only, please.

Completed entries (count: 2):
COc1cccc(C)c1-n1c(=O)on(C(=O)N(c2ccc(F)cc2F)C(C)C)c1=O ... 0
CCCn1c(=O)on(C(=O)N(c2ccc(F)cc2)C(C)C)c1=O ... 3

[ask] Quick one: give measured Wheat plant response rating for `CC(C)N(C(=O)n1oc(=O)n(CC[N+](=O)[O-])c1=O)c1ccc(F)cc1F`
[reply] 0

[ask] Identify measured Wheat plant response rating associated with `COCCn1c(=O)on(C(=O)N(c2ccc(F)cc2)C(C)C)c1=O`
[reply] 0

[ask] Respond only with Wheat plant response rating recorded for CCC(C)n1c(=O)on(C(=O)N(c2ccccc2)C(C)C)c1=O (centres unmarked)
[reply] 2

[ask] Indicate the recorded Wheat plant response rating value for this molecule: `CC(C)N(C(=O)n1oc(=O)n(CSC#N)c1=O)c1ccc(F)cc1`
[reply] 0

[ask] Output measured Wheat plant response rating for this item: `CC(C)N(C(=O)n1oc(=O)n(Cc2ccccc2Cl)c1=O)c1ccc(F)cc1`
[reply] 0

* * *

System: giant foxtail
Assay: Test B pre/postemergence giant foxtail
Format: in vivo, Setaria faberii
Settings: Preemergence, Rate 125 g/ha; scale of 0 to 10 where 0 is no effect and 10 is complete control
Property label: Giant foxtail plant response rating
Field format: numeric only.

Worked set:
CC(C)N(C(=O)n1oc(=O)n(C(C)C)c1=O)c1ccncc1 ... 3
CCC(C)n1c(=O)on(C(=O)N(c2ccccc2)C(C)C)c1=O (stereo not shown) ... 10
CC(C)N(C(=O)n1oc(=O)n(CC2CCCCO2)c1=O)c1ccccc1 (stereo not shown) ... 9
CCC=CCn1c(=O)on(C(=O)N(c2ccccc2)C(C)C)c1=O ... 5
COCCn1c(=O)on(C(=O)N(c2ccc(F)cc2F)C(C)C)c1=O ... 10
CC(C)N(C(=O)n1oc(=O)n(CC(=O)N(C)C)c1=O)c1ccccc1 ... 8

# input for lookup
[ask] Identify Giant foxtail plant response rating associated with the compound CC(C)N(C(=O)n1oc(=O)n(CC2CCCCO2)c1=O)c1ccc(Cl)cc1 (stereo not shown)
[reply] 10

* * *

Test system: wild oat
Assay: Test B pre/postemergence wild oat
Format: in vivo, Avena fatua
Settings: Rate 500 g/ha, Postemergence; scale 0 to 10, 0 no effect, 10 complete control
Property label: Wild oats plant response rating
Reply: number alone, nothing else.

[ask] Recall the reported Wild oats plant response rating of CCc1cccc(C)c1-n1c(=O)on(C(=O)N(c2ccc(F)cc2)C(C)C)c1=O [Compound 52] on wild oat and write it down.
[reply] 1

[ask] Name the recorded Wild oats plant response rating of Cc1ccccc1-n1c(=O)on(C(=O)N(c2cc(F)cc(F)c2)C(C)C)c1=O [Compound 67] , assay system wild oat.
[reply] 0

[ask] Answer briefly: Wild oats plant response rating recorded on wild oat for CCCn1c(=O)on(C(=O)N(c2ccc(F)cc2)C(C)C)c1=O [Compound 91]
[reply] 5

[ask] Fetch value of Wild oats plant response rating on wild oat for Cc1nc(C)c(Cn2c(=O)on(C(=O)N(c3ccc(F)cc3)C(C)C)c2=O)s1 [Compound 232] .
[reply] 0

[ask] Answer briefly: Wild oats plant response rating recorded on wild oat for CCOC(=O)C(C)N(C(=O)n1oc(=O)n(C2CCCCC2)c1=O)c1ccc(F)cc1 (stereo not drawn) [Compound 280]
[reply] 0

[ask] Report Wild oats plant response rating from wild oat testing of Cc1cccc(Cl)c1-n1c(=O)on(C(=O)N(c2ccc(Cl)cc2)C(C)C)c1=O [Compound 54]
[reply] 0

[ask] State the measured Wild oats plant response rating (wild oat) of CC(C)N(C(=O)n1oc(=O)n(-c2ccnn2C)c1=O)c1ccc(F)cc1 [Compound 124]
[reply] 0

[ask] Report Wild oats plant response rating from wild oat testing of CC(C)N(C(=O)n1oc(=O)n(C(C)(C)C)c1=O)c1ccc(Cl)cc1 [Compound 118]
[reply] 2

[ask] Recall the reported Wild oats plant response rating of CCN(CC)C(=O)n1oc(=O)n(Cc2cccs2)c1=O [Compound 77] on wild oat and write it down.
[reply] 3
